# condition_label: Crystal; DTA
measurement_label: Normal melting temperature (°C)

1: CCCCCCCCCCCC(=O)O
2: CCCCCCCCCCCCO
3: CCCCCCCCCCCCCCCCCC(=O)O
4: CCCCCCCCCCO
## Task Arrange these compounds by their Normal melting temperature, starting with the largest number. Order the labels as requested and give them as your answer.
## Result 3, 1, 2, 4

---

# assay_info: Molar enthalpy of transition or fusion
# condition_label: Crystal; DSC
measurement_label: Molar enthalpy of transition or fusion (kJ/mol)

The cases that follow already have their Molar enthalpy of transition or fusion on record.
## Task Identify measured Molar enthalpy of transition or fusion associated with CCCCCCCCCCCCCCO [1-tetradecanol]
## Result 43.6

## Task Retrieve Molar enthalpy of transition or fusion measured for CCCCCCCCCCCC(=O)O [dodecanoic acid] and print it.
## Result 33.4

## Task Give the reported Molar enthalpy of transition or fusion for this compound. CCCCCCCCCCCCO [dodecan-1-ol]
## Result 31.5

## Task Answer with the recorded Molar enthalpy of transition or fusion of CCCCCCCCCCCCCCCC(=O)OCC(COC(=O)CCCCCCCCCCCCCCC)OC(=O)CCCCCCCCCCCCCCC [1,2,3-propanetriyl tri(hexadecanoate)] only.
## Result 160

## Task Give the reported Molar enthalpy of transition or fusion for this compound. CCCCCCCCCC(=O)O [decanoic acid]
## Result 26.2

A: CCCCCCCCCCCCCCCCCC(=O)O [octadecanoic acid]
B: CCCCCCCCCCO [decan-1-ol]
## Task Could you check which of A and B has a smaller value for Molar enthalpy of transition or fusion? Refer to your chosen entry by its label in the reply.
## Result B
(B: 29.6 kJ/mol, A: 56.2 kJ/mol)

---

# condition_label: Crystal; DTA
measurement_label: Normal melting temperature (°C)

Below are worked cases with known answers.
## Task Identify Normal melting temperature associated with the compound CCCCCCCCCCCCCC(=O)O
## Result 55.90

## Task Let me know recorded Normal melting temperature for CCCCCCCCCCCCCCCC(=O)O , thanks.
## Result 64.02

## Task Entry CCCCCCCCCC(=O)O needs its Normal melting temperature filled in; supply it.
## Result 32.07

A: CCCCCCCCCCCCCCO
B: CCCCCCCCCCCCCCCC(=O)OCC(COC(=O)CCCCCCCCCCCCCCC)OC(=O)CCCCCCCCCCCCCCC [1,2,3-propanetriyl tri(hexadecanoate)]
## Task Returns: the argument ( A or B ) having the larger Normal melting temperature. Please indicate the selected item by its label.
## Result B
